B1: KRT33B (parent)
chain: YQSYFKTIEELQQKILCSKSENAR

variants of: B1; assay: protein stability index of a GFP-peptide fusion (GPS, HEK-293T) (PSI 1-6); higher = more stable; settings: c terminus: a fixed tail appended;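 note: lentivirally expressed fusions sorted by FACS into six bins by GFP to DsRed ratio, PSI derived from sequencing read proportions per bin multiplied by bin number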
Assign class by protein stability index: not lower than 2 means t; lower than 2 means f.

   changes  class_assignment
0     C17T                 t
1     A23E                 t
2      Y4P                 f
3     S18H                 f
4      K6F                 t

Please tell me: is the variant I15W at or over 2 in terms of protein stability index?
f

Please tell me: is the variant C17L at or over 2 in terms of protein stability index?
t

Please tell me: is the variant Y1Q at or over 2 in terms of protein stability index?
t

Please tell me: is the variant Y4W at or over 2 in terms of protein stability index?
t

Please tell me: is the variant R24D at or over 2 in terms of protein stability index?
f

Please tell me: is the variant K6W at or over 2 in terms of protein stability index?
t
